Biological target: FIH (Homo sapiens)
Construct: Full-length recombinant FIH, two- and three-consensus ankyrin repeats (2CA and 3CA) were produced as described; His6 (cleaved yes); made in house; host or cells: Escherichia coli BL21(DE3)
Experiment: Rapid quench-flow, FIH pre-steady-state product and succinate formation
Assay type: biochemical
Conditions: 0.5 mM apo-FIH, 0.4 mM Fe(II), 5 mM 2OG, 1 mM substrate, 50 mM HEPES pH 7.5, O2-saturated buffer 1:1, 5 °C, quenched with 1% CF3CO2H, succinate by LC-MS
Listed below: log10 Rapid quench-flow ksuccinate values for each entry.
measured endpoint: log10 Rapid quench-flow ksuccinate (log10 of the value in s⁻¹)

| polymer sequence | log10 Rapid quench-flow ksuccinate |
| --- | --- |
| AAGYNNLEVAEYLLEHGADVNAQDKGGLIPLHNAA [tnkrs-1_35-mer, 35-mer fragment of tankyrase-1, ARD substrate of FIH] | 1.00 |
| DESGLPQLTSYDCEVNAPIQGSRNLLQGEELLRAL [HIF-1α CAD35-mer] | -0.52 |
| DESGLPQLTSYDCEVNAPI [CAD HIF-1α19-mer] | -1.80 |
| ESYLLPELTRYDCEVNVPVLGSSTLLQGGDLLRAL [HIF-2α CAD35-mer] | -0.96 |
| HLEVVKLLLEAGADVNAQDK [1CA20-mer] | -0.10 |
| NLEVAEYLLEHGADVNAQDK [tnkrs-1_20-mer, 20-mer fragment of tankyrase-1, ARD substrate of FIH] | 0.00 |

* * *

Target: FIH (Homo sapiens, UniProt Q9NWT6)
Construct: Full-length recombinant FIH, two- and three-consensus ankyrin repeats (2CA and 3CA) were produced as described; His6 (cleaved yes); made in house; host or cells: Escherichia coli BL21(DE3)
Sequence (Q9NWT6 whole entry): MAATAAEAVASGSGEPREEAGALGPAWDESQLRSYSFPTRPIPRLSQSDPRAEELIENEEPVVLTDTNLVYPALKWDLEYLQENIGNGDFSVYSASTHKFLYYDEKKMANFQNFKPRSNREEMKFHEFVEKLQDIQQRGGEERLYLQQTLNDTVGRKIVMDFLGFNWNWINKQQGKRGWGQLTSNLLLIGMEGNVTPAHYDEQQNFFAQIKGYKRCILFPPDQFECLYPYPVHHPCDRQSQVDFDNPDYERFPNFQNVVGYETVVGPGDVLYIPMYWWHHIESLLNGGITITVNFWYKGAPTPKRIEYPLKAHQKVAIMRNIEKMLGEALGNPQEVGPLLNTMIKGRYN
Assay: Steady-state kinetics of FIH-catalyzed peptide/protein hydroxylation (MALDI-TOF-MS or LC-MS)
Type: biochemical
Conditions: FIH; 0.1–5 μM FIH, substrate varied, 50 μM Fe(II), 2OG fixed, 1 mM L-ascorbate, 50 mM HEPES pH 7.5, 37 °C; MALDI-TOF-MS (LC-MS for 2CA, 3CA); triplicate assays; read-out: Km^app(peptide)
Threshold 60 µM: Km strictly smaller gives 1 (yes), otherwise 0 (no).

| polymer sequence | target or system | label |
| --- | --- | --- |
| SDKNGSTPLHLAARNGHLEVVKLLLEHGADVNAQDKWGKTAFDISIDNGNEDLAEILQ [2CA, recombinant two-consensus ankyrin repeat protein produced in Escherichia coli] | FIH (Homo sapiens, UniProt Q9NWT6) | 1 (yes) |
| HLEVVKLLLEAGADVNAQDK [1CA20-mer] | FIH (Homo sapiens, UniProt Q9NWT6) | 1 (yes) |
| NLEVAEYLLEHGADVNAQDK [tnkrs-1_20-mer, 20-mer fragment of tankyrase-1, ARD substrate of FIH] | FIH (Homo sapiens, UniProt Q9NWT6) | 0 (no) |
| AAGYNNLEVAEYLLEHGADVNAQDKGGLIPLHNAA [tnkrs-1_35-mer, 35-mer fragment of tankyrase-1, ARD substrate of FIH] | FIH (Homo sapiens, UniProt Q9NWT6) | 1 (yes) |
| ESYLLPELTRYDCEVNVPVLGSSTLLQGGDLLRAL [HIF-2α CAD35-mer] | FIH (Homo sapiens, UniProt Q9NWT6) | 0 (no) |
| DESGLPQLTSYDCEVNAPIQGSRNLLQGEELLRAL [HIF-1α CAD35-mer] | FIH (Homo sapiens, UniProt Q9NWT6) | 0 (no) |
